test_protocol: in vitro
condition_context: dog, plasma
quantity_kind: half-life

q: Consider the molecule CN(C)CCc1c[nH]c2cccc(OC(=O)CCCC(=O)Oc3cccc4[nH]cc(CCN(C)C)c34)c12 [Compound I-24] and give its measured half-life.
a: 19 min

###

test_protocol: Rat plasma stability
condition_context: rat, plasma
Where a name gives a salt, the structure may show the parent alone.
quantity_kind: remaining at 0.5 h
Quick note: unit goes after the number.

- CC[C@H](C)C(=O)O[C@H]1C[C@@H](C)C=C2C=C[C@H](C)[C@H](CC[C@@H]3C[C@@H](O)CC(=O)O3)[C@H]21 [Lovastatin, reference compound]: 0%

Now turn to the next compound.
q: Consider the compound CC(C)N(CCc1c[nH]c2cccc(OC(=O)CCCC(=O)Oc3cccc4[nH]cc(CCN(C(C)C)C(C)C)c34)c12)C(C)C [Compound I-37, dihydrochloride] and give its measured remaining at 0.5 h.
a: 0%

Just for reference, patent US20260327250A1 is where these values come from.
